# System: 857933-349-R-J2-PDC complex spheroid viability
# Assay remarks: Anticancer human tumor 857933-349-R-J2-PDC patient-derived colon adenocarcinoma cell line growth inhibition [POLQ]
# Setup conditions: second compound 0.0316 µM; first compound 0.1 µM; stronger effect = lower value
Assay metric: viability, T/C (%)

INSERT INTO measurements (molecule, test_system, test_value) VALUES
  ('CC(C)n1c(=O)n(C)c2cnc3cc(F)c(-c4ccc(OCCCN5CCCCC5)nc4)cc3c21 + COC1C(OC(N)=O)C(O)C(Oc2ccc3c(O)c(NC(=O)c4ccc(O)c(CC=C(C)C)c4)c(=O)oc3c2C)OC1(C)C', '857933-349-R-J2-PDC complex spheroid viability', 108),
  ('CCc1cc2c(N3CCc4c(cc(Cn5ccnc5)cc4-c4cn(C)nc4C(F)(F)F)C3=O)ccnc2c(OC)n1 + Cc1cccc(N(C)C(=O)C2C(O)CCN2c2nc(C)cc(C(F)(F)F)c2C#N)c1', '857933-349-R-J2-PDC complex spheroid viability', 91),
  ('C=CC(=O)N1CCN(c2nc(=O)n(-c3c(C)ccnc3C(C)C)c3nc(-c4c(O)cccc4F)c(F)cc23)C(C)C1 (stereo not given) + Cc1cccc(N(C)C(=O)C2C(O)CCN2c2nc(C)cc(C(F)(F)F)c2C#N)c1', '857933-349-R-J2-PDC complex spheroid viability', 104),
  ('CCc1cc2c(N3CCc4c(cc(Cn5ccnc5)cc4-c4cn(C)nc4C(F)(F)F)C3=O)cc(C)nc2c(OC)n1 + COC1C(OC(N)=O)C(O)C(Oc2ccc3c(O)c(NC(=O)c4ccc(O)c(CC=C(C)C)c4)c(=O)oc3c2C)OC1(C)C', '857933-349-R-J2-PDC complex spheroid viability', 80.3),
  ('O=c1[nH]cc(F)c(=O)[nH]1 + Nc1ccc(C#CCN(C(=O)Cc2ncc(C(F)(F)F)cc2C(F)(F)F)c2ccc(F)cc2)nn1', '857933-349-R-J2-PDC complex spheroid viability', 98.7);

====

# Tested on: 857933-349-R-J2-PDC complex spheroid viability
# Assay remarks: Anticancer human tumor 857933-349-R-J2-PDC cell line growth inhibition [POLQ];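 note: spheroids exposed to compounds for seven days before readout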
# Setup conditions: second compound 1 µM; first compound 0.316 µM; stronger effect = lower value
Assay metric: viability, T/C (%)

INSERT INTO assay_data (molecule, assay_metric, test_value) VALUES
  ('C=CC(=O)N1CCN(c2nc(=O)n(-c3c(C)ccnc3C(C)C)c3nc(-c4c(O)cccc4F)c(F)cc23)C(C)C1 (stereo not given) + Nc1ccc(C#CCN(C(=O)Cc2ncc(C(F)(F)F)cc2C(F)(F)F)c2ccc(F)cc2)nn1', 'viability, T/C', 97.6),
  ('CCCS(=O)(=O)Nc1ccc(F)c(C(=O)c2c[nH]c3ncc(-c4ccc(Cl)cc4)cc23)c1F + COC1C(OC(N)=O)C(O)C(Oc2ccc3c(O)c(NC(=O)c4ccc(O)c(CC=C(C)C)c4)c(=O)oc3c2C)OC1(C)C', 'viability, T/C', 121),
  ('C=CCn1c(=O)c2cnc(Nc3ccc(N4CCN(C)CC4)cc3)nc2n1-c1cccc(C(C)(C)O)n1 + Nc1ccc(C#CCN(C(=O)Cc2ncc(C(F)(F)F)cc2C(F)(F)F)c2ccc(F)cc2)nn1', 'viability, T/C', 102),
  ('Nc1ccn(C2OC(CO)C(O)C2(F)F)c(=O)n1 (stereo not given) + Nc1ccc(C#CCN(C(=O)Cc2ncc(C(F)(F)F)cc2C(F)(F)F)c2ccc(F)cc2)nn1', 'viability, T/C', 12),
  ('O=C(c1cc(Cc2n[nH]c(=O)c3ccccc23)ccc1F)N1CCN(C(=O)C2CC2)CC1 + Nc1ccc(C#CCN(C(=O)Cc2ncc(C(F)(F)F)cc2C(F)(F)F)c2ccc(F)cc2)nn1', 'viability, T/C', 90.5);

====

Reported viability, T/C is given for each of the following molecules.
# Test system: 857933-349-R-J2-PDC complex spheroid viability
# Assay remarks: Anticancer human tumor 857933-349-R-J2-PDC cell line growth inhibition [POLQ];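 note: spheroids exposed to compounds for seven days before readout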
# Setup conditions: second compound 1 µM; first compound 0.316 µM; stronger effect = lower value
Assay metric: viability, T/C (%)

INSERT INTO measurements (molecule, quantity_unit, test_value) VALUES
  ('CNCc1ccc(-c2[nH]c3cc(F)cc4c3c2CCNC4=O)cc1 + COC1C(OC(N)=O)C(O)C(Oc2ccc3c(O)c(NC(=O)c4ccc(O)c(CC=C(C)C)c4)c(=O)oc3c2C)OC1(C)C', '%', 67.9),
  ('O=C(c1cc(Cc2n[nH]c(=O)c3ccccc23)ccc1F)N1CCN(C(=O)C2CC2)CC1 + Cc1cccc(N(C)C(=O)C2C(O)CCN2c2nc(C)cc(C(F)(F)F)c2C#N)c1', '%', 86.2),
  ('COc1cc2cc(C(=O)CCC(=O)O)sc2cc1OC + COC1C(OC(N)=O)C(O)C(Oc2ccc3c(O)c(NC(=O)c4ccc(O)c(CC=C(C)C)c4)c(=O)oc3c2C)OC1(C)C', '%', 103),
  ('Nc1ccn(C2OC(CO)C(O)C2(F)F)c(=O)n1 (stereo unspecified) + COC1C(OC(N)=O)C(O)C(Oc2ccc3c(O)c(NC(=O)c4ccc(O)c(CC=C(C)C)c4)c(=O)oc3c2C)OC1(C)C', '%', 25.5),
  ('C=CCn1c(=O)c2cnc(Nc3ccc(N4CCN(C)CC4)cc3)nc2n1-c1cccc(C(C)(C)O)n1 + Cc1cccc(N(C)C(=O)C2C(O)CCN2c2nc(C)cc(C(F)(F)F)c2C#N)c1', '%', 117),
  ('COc1cc(C2c3cc4c(cc3C(OC3OC5COC(C)OC5C(O)C3O)C3COC(=O)C23)OCO4)cc(OC)c1O (stereo unspecified) + COC1C(OC(N)=O)C(O)C(Oc2ccc3c(O)c(NC(=O)c4ccc(O)c(CC=C(C)C)c4)c(=O)oc3c2C)OC1(C)C', '%', 54.6);

====

# Tested on: 857933-349-R-J2-PDC complex spheroid viability
# Assay remarks: Anticancer human tumor 857933-349-R-J2-PDC cell line growth inhibition [POLQ];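 note: spheroids exposed to compounds for seven days before readout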
# Setup conditions: second compound 1 µM; first compound 0.316 µM; stronger effect = lower value
// reported viability, T/C per item
Assay metric: viability, T/C (%)

INSERT INTO results (compound, assay_metric, quantity_unit, test_value) VALUES
  ('CC1COCCN1c1cc(-c2ccnn2C)c2ccnc(-c3ccn[nH]3)c2n1 (stereo unspecified) + Nc1ccc(C#CCN(C(=O)Cc2ncc(C(F)(F)F)cc2C(F)(F)F)c2ccc(F)cc2)nn1', 'viability, T/C', '%', 51.5),
  ('CNCc1ccc(-c2[nH]c3cc(F)cc4c3c2CCNC4=O)cc1 + Nc1ccc(C#CCN(C(=O)Cc2ncc(C(F)(F)F)cc2C(F)(F)F)c2ccc(F)cc2)nn1', 'viability, T/C', '%', 98.9),
  ('COc1cccc(OCCCN)c1-c1cc(Nc2cnc(C#N)cn2)n[nH]1 + COC1C(OC(N)=O)C(O)C(Oc2ccc3c(O)c(NC(=O)c4ccc(O)c(CC=C(C)C)c4)c(=O)oc3c2C)OC1(C)C', 'viability, T/C', '%', 46.5),
  ('COc1cc2cc(C(=O)CCC(=O)O)sc2cc1OC + Nc1ccc(C#CCN(C(=O)Cc2ncc(C(F)(F)F)cc2C(F)(F)F)c2ccc(F)cc2)nn1', 'viability, T/C', '%', 97.5),
  ('CC(C)n1c(=O)n(C)c2cnc3cc(F)c(-c4ccc(OCCCN5CCCCC5)nc4)cc3c21 + COC1C(OC(N)=O)C(O)C(Oc2ccc3c(O)c(NC(=O)c4ccc(O)c(CC=C(C)C)c4)c(=O)oc3c2C)OC1(C)C', 'viability, T/C', '%', 103),
  ('COc1cc2cc(C(=O)CCC(=O)O)sc2cc1OC + Cc1cccc(N(C)C(=O)C2C(O)CCN2c2nc(C)cc(C(F)(F)F)c2C#N)c1', 'viability, T/C', '%', 100);

====

The compounds listed here are annotated with their IC50.
# Tested on: 857933-349-R-J2-PDC complex spheroid viability
# Assay remarks: Anticancer human tumor 857933-349-R-J2-PDC cell line growth inhibition [POLQ];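 note: spheroids exposed to compounds for seven days before readout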
# Setup conditions: curve of first compound; second compound 0.0316 µM
Assay metric: IC50

INSERT INTO assay_data (compound, test_value) VALUES
  ('O=C(c1cc(Cc2n[nH]c(=O)c3ccccc23)ccc1F)N1CCN(C(=O)C2CC2)CC1 + Nc1ccc(C#CCN(C(=O)Cc2ncc(C(F)(F)F)cc2C(F)(F)F)c2ccc(F)cc2)nn1', '> 10 µM'),
  ('CCc1cc2c(N3CCc4c(cc(Cn5ccnc5)cc4-c4cn(C)nc4C(F)(F)F)C3=O)ccnc2c(OC)n1 + Cc1cccc(N(C)C(=O)C2C(O)CCN2c2nc(C)cc(C(F)(F)F)c2C#N)c1', '> 10 µM'),
  ('CC(C)n1c(=O)n(C)c2cnc3cc(F)c(-c4ccc(OCCCN5CCCCC5)nc4)cc3c21 + Cc1cccc(N(C)C(=O)C2C(O)CCN2c2nc(C)cc(C(F)(F)F)c2C#N)c1', '> 10 µM'),
  ('CC1COCCN1c1cc(C2(O)CC3CCC(C2)O3)c2cnn(-c3ccn[nH]3)c2n1 (stereo not given) + Cc1cccc(N(C)C(=O)C2C(O)CCN2c2nc(C)cc(C(F)(F)F)c2C#N)c1', '0.247 µM'),
  ('Cn1ncnc1[C@H]1c2n[nH]c(=O)c3cc(F)cc(c23)N[C@@H]1c1ccc(F)cc1 + Nc1ccc(C#CCN(C(=O)Cc2ncc(C(F)(F)F)cc2C(F)(F)F)c2ccc(F)cc2)nn1', '> 0.1 µM'),
  ('CCc1cc2c(N3CCc4c(cc(Cn5ccnc5)cc4-c4cn(C)nc4C(F)(F)F)C3=O)ccnc2c(OC)n1 + Nc1ccc(C#CCN(C(=O)Cc2ncc(C(F)(F)F)cc2C(F)(F)F)c2ccc(F)cc2)nn1', '> 10 µM'),
  ('COc1cc2cc(C(=O)CCC(=O)O)sc2cc1OC + COC1C(OC(N)=O)C(O)C(Oc2ccc3c(O)c(NC(=O)c4ccc(O)c(CC=C(C)C)c4)c(=O)oc3c2C)OC1(C)C', '> 10 µM'),
  ('O=C(Nc1ccc(O)c(NS(=O)(=O)c2ccc(F)cc2)c1)c1ccc(-c2ccccc2)cc1 + COC1C(OC(N)=O)C(O)C(Oc2ccc3c(O)c(NC(=O)c4ccc(O)c(CC=C(C)C)c4)c(=O)oc3c2C)OC1(C)C', '> 10 µM'),
  ('CCc1cc2c(N3CCc4c(cc(Cn5ccnc5)cc4-c4cn(C)nc4C(F)(F)F)C3=O)cc(C)nc2c(OC)n1 + Nc1ccc(C#CCN(C(=O)Cc2ncc(C(F)(F)F)cc2C(F)(F)F)c2ccc(F)cc2)nn1', '> 10 µM'),
  ('COc1cccc2c1C(=O)c1c(O)c3c(c(O)c1C2=O)CC(O)(C(=O)CO)CC3OC1CC(N)C(O)C(C)O1 (stereo not given) + Nc1ccc(C#CCN(C(=O)Cc2ncc(C(F)(F)F)cc2C(F)(F)F)c2ccc(F)cc2)nn1', '0.22 µM');
